- Test system: TK-10 renal
- runDescription: NCI tumour cell line growth inhibition, 48 h
Give TGI for every item shown.

Illustrative cases are given below, each with its answer.
[[record]]
compound = "CC(C)(C)C1=CC(=CC=C2C=CN(CCCCCCCCCCCO)C=C2)C=C(C(C)(C)C)C1=O"
reportedresult = "3.67 µM"

[[record]]
compound = "COC(=O)C1=C(c2ccc3c(c2)OCO3)O[C@H](c2ccc3c(c2)OCO3)[C@H]1COC(C)=O"
reportedresult = "> 100 µM"

[[record]]
compound = "CC[N+](C)(CC)Cc1ccccc1[N+](=O)[O-]"
reportedresult = "> 100 µM"


Items follow; give TGI for each.
1. Cc1ccc(N=NC(C(=O)c2ccccc2)C(=O)c2ccccc2)cc1
2. COc1cc2c3c(n(CCCBr)c(=O)c2cc1OC)-c1ccc(NC(C)=O)cc1C3=O
3. O=c1[nH]nc(-c2cccc(Br)c2)[nH]1
4. O=C1C(Br)=CC2(C=C1Br)CCN=c1c(O)c3c(c(O)c12)=NC=N3
5. CCCNC(=S)N/N=C(\C)c1ccccn1
6. Cc1nc(N)c(N2CCNCC2)c(=O)[nH]1
7. Cc1cc(NS(=O)(=O)c2ccc(N=Nc3c(O)c(C(=O)O)cc4ccccc34)cc2)nc(C)n1

> 100 µM
> 100 µM
> 100 µM
59 µM
> 100 µM
> 100 µM
> 100 µM

* * *

- System: 786-0 renal
- runDescription: NCI tumour cell line growth inhibition, 48 h
resultType: TGI

Illustrative cases are given below, each with its answer.
[[record]]
compound = "CCOc1cc(NC(C)=O)ccc1C(=O)NN1C(=O)C(Oc2ccccc2)C1c1ccc(O)c(OC)c1 (stereo not given)"
targetundertest = "786-0 renal"
reportedresult = "> 100 µM"

[[record]]
compound = "CSc1ccc(/C=C2/C[N+](C)(C)C/C(=C/c3ccc(SC)cc3)C2=O)cc1"
targetundertest = "786-0 renal"
reportedresult = "26.8 µM"

[[record]]
compound = "N#CCCN(c1ccc(/C=C2\\N=C(c3ccc(Cl)cc3)OC2=O)cc1)S(=O)(=O)c1ccccc1"
targetundertest = "786-0 renal"
reportedresult = "> 100 µM"

[[record]]
compound = "NCCCNCCSSCCCCS(=O)O"
targetundertest = "786-0 renal"
reportedresult = "> 100 µM"

[[record]]
compound = "O=C(CC(=O)n1nc(-c2ccccc2)c(N=Nc2ccc(Cl)cc2)c1-c1ccccc1)Nc1cccc(Cl)c1"
targetundertest = "786-0 renal"
reportedresult = "> 100 µM"

[[record]]
compound = "Nc1nccc(-c2c(-c3ccc(F)cc3)ncn2CCCN2CCOCC2)n1"
targetundertest = "786-0 renal"
reportedresult = "> 25 µM"

[[record]]
compound = "CC1=C2C3=C(C)C(=O)C(C)(C)CC[C@@]3(C)[C@]2(C)CCC(C)(C)C1=O"
targetundertest = "786-0 renal"
reportedresult = "> 100 µM"

[[record]]
compound = "COc1cccc(C2c3cc4c(cc3OC(N3CCCC3)C2C)OCO4)c1 (stereo not given)"
targetundertest = "786-0 renal"
reportedresult = "33.7 µM"


Items follow; give TGI for each.
1. CC(C)CSc1nc(Nc2ccccc2)c(C#N)c(-c2ccc(F)cc2)n1
2. COc1ccc(C2CC(=O)c3c(OC)cc(OC)cc3O2)cc1 (stereo not given)

1. 5.19 µM
2. > 100 µM
